Task for the reader: assign each of the following compounds its reported inhibition at 10 µM.
Tested on: Jurkat E6-1 human T-cell lymphoma
Assay: Tumor cell inhibition ratio, CCK-8 kit, Jurkat E6-1
Conditions: Jurkat E6.1, read-out: Antiproliferative effect (inhibition ratio) E6-1
Please give a number only; it is taken to be in %.

Prompt line: Supply reported inhibition at 10 µM belonging to this compound: COCCOc1cc2c(cc1OCCOC)C1=Nc3cc(C#N)ccc3CN1C=N2 [Compound V-17]
Response line: 33.7

Prompt line: Note inhibition at 10 µM for the compound shown: COCCOc1cc2c(cc1OCCOC)C1=Nc3cccc(C#N)c3CN1C=N2 [Compound V-7]
Response line: 34.6

Prompt line: Write down inhibition at 10 µM measured for item COCCOc1cc2c(cc1OCCOC)C1=Nc3cccc(O)c3CN1C=N2 [Compound V-8]
Response line: 44

Prompt line: Read off the recorded inhibition at 10 µM for COCCOc1cc2c(cc1OCCOC)C1=Nc3cccc(OC)c3CN1C=N2 [Compound V-10]
Response line: 51.8

Prompt line: Look up and report measured inhibition at 10 µM for this entry: COc1cc2c(cc1OCCCN1CCNCC1)C1=Nc3cccc(F)c3CN1C=N2 [Compound V-25]
Response line: 31.1

Prompt line: Provide only the value of recorded inhibition at 10 µM for COCCOc1cc2c(cc1OCCOC)C1=Nc3cc(Cl)ccc3C(C)N1C=N2.O=C(O)CC(O)C(=O)O (centres unmarked) [Compound V-22, malate]
Response line: 67

Prompt line: Recall and state the measured inhibition at 10 µM for COCCOc1cc2c(cc1OCCOC)C1=Nc3cccc([N+](=O)[O-])c3CN1C=N2 [Compound V-5] .
Response line: 34.8

Prompt line: Give inhibition at 10 µM for the following compound: COCCOc1cc2c(cc1OCCOC)C1=Nc3cc(CO)cc(N)c3CN1C=N2 [Compound V-21]
Response line: 43.5

Prompt line: Respond only with inhibition at 10 µM recorded for COCCOc1cc2c(cc1OCCOC)C1=Nc3cccc(NC(C)=O)c3CN1C=N2 [Compound V-11]
Response line: 41.6

Prompt line: Give the reported inhibition at 10 µM for this compound. COCCOc1cc2c(cc1OCCOC)C1=Nc3cc(Cl)ccc3CN1C=N2 [Compound V-15]
Response line: 69.5

Prompt line: Give the measured inhibition at 10 µM for C#Cc1cccc2c1CN1C=Nc3cc(OC)c(OC)cc3C1=N2 [Compound V-31]
Response line: 21.8

Prompt line: Answer with the recorded inhibition at 10 µM of C#Cc1ccc2c(c1)N=C1c3cc(OCCOC)c(OCCOC)cc3N=CN1C2 [Compound V-19] only.
Response line: 55.2

Prompt line: Report inhibition at 10 µM, nothing else, for this compound: COc1cc2c(cc1OCCCN1CCOCC1)C1=Nc3cc(Cl)ccc3CN1C=N2 [Compound V-28]
Response line: 40.4

Prompt line: Output measured inhibition at 10 µM for this item: COCCOc1cc2c(cc1OCCOC)C1=Nc3cccc(Br)c3CN1C=N2.Cl [Compound V-2, hydrochloride hemihydrate]
Response line: 56.2

Prompt line: Return value of inhibition at 10 µM for input COCCOc1cc2c(cc1OCCOC)C1=Nc3ccc(F)c(Cl)c3CN1C=N2 [Compound V-13] , no commentary.
Response line: 52.6

Prompt line: In one line, give reported inhibition at 10 µM of the entry COCCOc1cc2c(cc1OCCOC)C1=Nc3ccc(OCc4cccc(F)c4)c(Cl)c3CN1C=N2 [Compound V-14] .
Response line: 26.9

Prompt line: Output inhibition at 10 µM of C#Cc1cccc2c1CN1C=Nc3cc(OCCOC)c(OCCOC)cc3C1=N2.Cl [Compound V-4, hydrochloride trihydrate]
Response line: 6.85

src = patent US20110288086A1
